Measured target: T1, HLA-A*0301 (human)
T1 construct: also called HLA-A3
Procedure summary: inhibition of 125I-labelled probe peptide binding to purified HLA-A*0301, gel filtration; ratio to standard peptide 941.12 ([..], 11 nM)
Metric: relative binding ratio (IC50 of standard peptide / IC50 of test peptide)
Provide a numeric answer; units are not to be included.

Memo: GLACHQLCAR [HER2/neu peptide, position 508, 10 amino acids] , reported relative binding ratio (IC50 of standard peptide / IC50 of test peptide): 0.011

Memo: GLGISWLGLR [HER2/neu peptide, position 447, 10 amino acids] , reported relative binding ratio (IC50 of standard peptide / IC50 of test peptide): 0.0037

Memo: GMSYLEDVR [HER2/neu peptide, position 832, 9 amino acids] , reported relative binding ratio (IC50 of standard peptide / IC50 of test peptide): -0.0002

Memo: GVGSPYVSR [HER2/neu peptide, position 776, 9 amino acids] , reported relative binding ratio (IC50 of standard peptide / IC50 of test peptide): 0.001

Memo: GGAVENPEY [HER2/neu peptide, position 1188, 9 amino acids] , reported relative binding ratio (IC50 of standard peptide / IC50 of test peptide): 0.0003

Memo: GSGAFGTVYK [HER2/neu peptide, position 727, 10 amino acids] , reported relative binding ratio (IC50 of standard peptide / IC50 of test peptide): 0.066

Memo: HADGGKVPIK [HER2/neu peptide, position 878, 10 amino acids] , reported relative binding ratio (IC50 of standard peptide / IC50 of test peptide): 0.0003

Memo: FSRMARDPQR [HER2/neu peptide, position 976, 10 amino acids] , reported relative binding ratio (IC50 of standard peptide / IC50 of test peptide): -0.0002

Memo: GMEHLREVR [HER2/neu peptide, position 346, 9 amino acids] , reported relative binding ratio (IC50 of standard peptide / IC50 of test peptide): -0.0002

Memo: GAMPNQAQMR [HER2/neu peptide, position 704, 10 amino acids] , reported relative binding ratio (IC50 of standard peptide / IC50 of test peptide): -0.0002
